- Method: folding stability dG unfold (combined trypsin and chymotrypsin); higher = more stable
Measure: folding stability dG unfold (kcal/mol)

1) SAGGSAGGKKKYRALITLRSKDGKPIAPIEIETDSPEELLKTAKKIIEEATKENEPVEIKVEEYSAGGSAGG [r6_285_TrMRF]; 1.59
2) SAGGSAGGSAGGSDPSMSLETFVIPESTSTVTLTDPSGTLRTLTTGRDPLTLTEVLPPRSAGGSAGGSAGGS [r4_162_JUSTAS]; -0.078
3) SAGGSAGGSPVVAIRAKSREELLAALEALLPPGQKLTPEQRQQLVDTLLANLDVKPGDTILVRSAGGSAGGS [r12_983_TrROS_Hall]; 0.992

These data points were gathered from the supplement of paper PMC12764529.
